Molecular target: T1, Bir3 domain of XIAP (residues 252-350) with a C-terminal His tag (UniProt P98170 252-350)
T1 construct: Stored with 10 mM beta-mercaptoethanol and dialysed before experimental use; also called Bir3 subunit of XIAP; XIAP (252-350); source: E. coli BL21 Star (DE3), purified (nickel-Sepharose, Sephacryl S100 gel filtration)
T1 sequence (P98170 252-350): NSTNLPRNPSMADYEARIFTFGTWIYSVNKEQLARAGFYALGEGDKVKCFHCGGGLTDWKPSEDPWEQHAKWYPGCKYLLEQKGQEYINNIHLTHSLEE
Test: fluorescence polarisation; non-labeled Bir3 (200 µl, 150 µM) titrated in 5 µl additions into 1 ml of fluorescein-labeled peptide; 20 mM Hepes pH 7.4, 45 mM NaCl, 10°C; fit to 1:1 binding model
Settings: both partners purified
No end group written: not given here.
Endpoint Label: pKd
Give bare numbers, as −log10 of the molar value.

I have this binder here, {5'/6'‑carboxyfluorescein}-QEHQGQGCH (numbers count on: ARTS/Sept4_i2 (GenBank AAG45673.1); also called ARTS 266-274 monomer; source: synthetic peptide) [fl-ARTS 266-274] , and I need its recorded pKd. 5.54
